# Test Method Notes: AUC (infinity) in fasted healthy human at 3 mg/kg, po
# Assay type: ADME, organism-based
# Design: time infinity, dose 3 mg/kg, route oral
# Assay Conditions: plasma
Assay Endpoint: AUC(0-inf)
Don't forget the unit after the number, please.

INPUT: Which AUC(0-inf) is listed for "COC(=O)N[C@H](C(=O)N1CC2(CC2)C[C@H]1c1nc(-c2ccc3c(c2)C(F)(F)c2cc(-c4ccc5[nH]c([C@@H]6[C@H]7CC[C@H](C7)N6C(=O)[C@@H](NC(=O)OC)C(C)C)nc5c4)ccc2-3)c[nH]1)C(C)C" ?
OUTPUT: 0.245 µM·h
